details: [M+H]+; instrument: DT; single field, calibrated with ESI Low Concentration Tuning Mix (Agilent)
test readout: collision cross section (N2) (Å²)

Consider the following illustrative entries.
NCCc1ccc(O)c(O)c1 = 142.3
NCC(=O)CCC(=O)O [5-AMINOLEVULINATE] = 130.7
N[C@@H](CCS)C(=O)O = 130.3

(1) O=c1[nH]c(=O)c2[nH]cnc2[nH]1
(2) CCCCCCCCCCCCCCC[C@@H](O)[C@@H](N)CO
Exercise: # returns the entry with the larger collision cross section (N2); inputs 1 and 2 Respond with the label that goes with your answer.
Solution: 2

###

conditions: [M-H]-; instrument: DT; single field, calibrated with Agilent tune mix (Agilent)
test readout: collision cross section (N2) (Å²)

O=C(O)c1cc(=O)c2cccc(O)c2[nH]1 = 132.51

(a) CC1=C(C/C=C(\C)CCC[C@H](C)CCC[C@H](C)CCCC(C)C)C(=O)c2ccccc2C1=O [Phylloquinone]
(b) CC(=O)Nc1ccccc1 [N-Phenylacetamide]
Exercise: Of a versus b , which is the one with smaller reported collision cross section (N2)? Mark your selection by writing its label.
Solution: b
(b: 124.17 Å², a: 211.81 Å²)

(A) Nc1ncnc2c1ncn2[C@@H]1O[C@H](COP(=O)(O)OS(=O)(=O)O)[C@@H](O)[C@H]1O [Adenosine 5'-phosphosulfate]
(B) CC1=C(CCC(=O)O)c2cc3nc(cc4[nH]c(cc5[nH]c(cc1n2)c(C)c5CCC(=O)O)c(CCC(=O)O)c4C)C(CCC(=O)O)=C3C
(C) O=C(O)c1ccccc1
Exercise: Hey, quick one: sort these by collision cross section (N2), largest value first please. Submit the labels in the order that the ranking request calls for.
Solution: B, A, C

###

details: [M+Na]+; instrument: DT; stepped-field
test readout: collision cross section (N2) (Å²)

c1ccc2[nH]c(-c3cscn3)nc2c1 = 164.17
CC(C)C1(C)N=C(c2ncccc2C(=O)O)NC1=O (stereo not given) = 176.07
CCCCCCCCCCCCCCCCCCCC(=O)OC[C@@H](O)COP(=O)([O-])OCC[N+](C)(C)C = 251.13

(I) C=CC1=C(C)C(/C=c2\[nH]/c(=C\c3[nH]c(/C=C4\NC(=O)C(C)=C4C=C)c(C)c3CCC(=O)O)c(CCC(=O)O)c2C)=NC1=O
(II) CC(=O)[C@H]1CC[C@H]2[C@@H]3CCC4=CC(=O)CC[C@]4(C)[C@H]3CC[C@]12C
Exercise: Which shows the larger collision cross section (N2) value: I or II ? Refer to your chosen entry by its label in the reply.
Solution: I

###

details: [M+H]+; instrument: DT; single field, calibrated with Agilent tune mix (Agilent)
test readout: collision cross section (N2) (Å²)

Solved cases (3 shown):
N[C@@H](CSSC[C@H](N)C(=O)O)C(=O)O = 149.4
O=c1[nH]c(=O)c2[nH]cnc2[nH]1 = 130.3
O=C([O-])c1cccnc1 [Nicotinate] = 124

(P) O=C(O)[C@@H]1CCCN1
(Q) CC12CCC(=O)C=C1CCC1C2CCC2(C)C(C(=O)CO)CCC12 (stereo unspecified)
Exercise: // task: argmin of collision cross section (N2) over [ P , Q ] API: response body contains the label of the selected item.
Solution: P

(A) COc1cc(C=O)ccc1O
(B) CCCCCCCCCCCCC/C=C/[C@@H](O)[C@@H](N)CO
Exercise: In the pair A and B , the larger recorded collision cross section (N2) belongs to which? Your answer should be the label of the entry you select.
Solution: B

###

conditions: [M-H]-; instrument: DT; single field, calibrated with Agilent tune mix (Agilent)
test readout: collision cross section (N2) (Å²)

O=C(O)CC(C(=O)O)C(O)C(=O)O (configuration not stated) [Isocitrate] = 125.26
CCCCCCCCCCCCCCCCCCCC(=O)O [Arachidic acid] = 183.41
O=C(O)CC[C@@](O)(CC(=O)O)C(=O)O [Homocitrate] = 129.99
N[C@@H](CS)C(=O)NCC(=O)O [Cysteinylglycine] = 131.77
Cc1ncc(COP(=O)(O)O)c(C=O)c1O [Pyridoxal 5'-phosphate] = 146.34
N[C@H](CO)Cc1cnc[nH]1 [L-Histidinol] = 126.11
CCCCCCCCCCCCCCCCCCCCCC(=O)O [Behenic acid] = 191.18
Cc1cn([C@@H]2O[C@H](CO)[C@@H](O)[C@H]2O)c(=O)[nH]c1=O [Ribothymidine] = 153.52
O=P(O)(O)OC1O[C@H](CO)[C@@H](O)[C@H](O)[C@@H]1O (stereo partly drawn) [D-Mannose 1-phosphate] = 143.99
OC1C(O)C(O)C(O)C(O)C1O (configuration not stated) [myo-Inositol] = 128.61
Cc1cn([C@@H]2O[C@H](CO)[C@@H](O)[C@H]2O)c(=O)nc1N [5-Methylcytidine] = 152.63
Nc1ccccc1C(=O)O [Anthranilic acid] = 123.99

###

settings: [M+H]+; instrument: DT; single field, calibrated with Agilent tune mix (Agilent)
test readout: collision cross section (N2) (Å²)

NC(Cc1cc(I)c(Oc2ccc(O)cc2)c(I)c1)C(=O)O (centres undefined) = 198.2
O=C(O)[C@H]1CCCN1 = 125
Nc1ncnc2c1ncn2[C@H]1C[C@H](O)[C@@H](CO)O1 = 152.3
Cc1ncc(COP(=O)(O)O)c(C=O)c1O [Pyridoxal 5'-phosphate] = 151.4
